Source: patent US20060009487A1

Here, each record is paired with measured melting point data.

| compound | melting point, °C |
| --- | --- |
| Nc1c(C(=O)O)cnc2ccccc12 | 305 |
| CCOC(=O)c1cnc2ccccc2c1NCCCCCNc1ncccn1 | 108 |
| Cc1nc2ccccc2c(-c2ccccc2)c1CC(NC(=O)CCCC(=O)O)C(=O)NCCCCN (centres unmarked) | 129 |
| N=C(N)NCCNc1c(C(=O)O)cnc2ccccc12 | 267 |
| O=C(O)c1cnc2ccccc2c1NCCCNc1ncccn1 | 269 |
